Assay: soluble fraction after stress (log2 fold change); higher = more stays soluble; pooled small domains, quantitative proteomics
Conditions: stress: pH 4
Entries and their measured soluble fraction (log2) follow.
Give the figure by itself; no unit, no explanation.

// below: answered sequences
{"SEQ_TEXT": "HMQQGVEQLPVTEVGGRLMHYYEVQPKETLYSLSHKLGVGQEYIEQHNPSVRGGLRAFMTLYFPAA", "ASSAY_READOUT": "soluble fraction (log2)", "VALUE_OBSERVED": -0.12}
{"SEQ_TEXT": "HMNLAISAYQQLKSDIIRGVYAPGEKLLMSRLKVRYGLGIGPMREALSQLVSEHLVTAASQRGYRVAGM", "ASSAY_READOUT": "soluble fraction (log2)", "VALUE_OBSERVED": 0.129}
{"SEQ_TEXT": "HMPDAENFRYRVPYTTEQNRLQYYEGDIRAENADKARDQVMQDAQKYFAQNTAFTPNYIDTDIISLD", "ASSAY_READOUT": "soluble fraction (log2)", "VALUE_OBSERVED": -0.615}

Quick one: soluble fraction (log2) of HMSMEKNWVPSEDVIEILTRAGMNENFIRELIPEFIIYWSERKDVLISYDSKFIEHARLKWAQHNAE ?
0.0608

Check HMRPQELSSLNTNQMRLYNSLPEAFITAEAKDIADKLRYSERSLFRFLNESNLFTKTEHGSYAKKA too.
-0.585
